- Test system: Lefty1
- run description: Lefty1 binders on small-molecule microarrays, primary screen, biochemical, small-molecule microarray, 635/667 nm fluorescence (AID 1139)
- measurement parameters: small-molecule microarray binding, fluorescence 635/667; higher = more signal
measured endpoint: composite z-score
Give the value as a plain number.

Example cases with answers are listed next.
1. COc1ccc([Si](C)(C)[C@@H]2[C@@H](CC(=O)N3CCC[C@H]3CO)O[C@]3(C(=O)N(Cc4ccc(N5C(=O)c6cccc7cccc5c67)cc4)c4ccccc43)[C@H]2C)cc1    1.2
2. C=CCN1C(=O)[C@]2(CC=C)N=C(c3ccc(OCCCO)cc3)O[C@@H]2c2ccccc21    0.768
3. CN(C)CCCNC(=O)[C@@H]1c2ccccc2C(=O)N(Cc2ccc(OC(F)(F)F)cc2)[C@H]1c1ccc(CO)cc1    0.9

Consider the record given below.
**Q:** Given the entry `COC(=O)[C@@]1(Cc2ccccc2)[C@H]2c3cc(C(=O)N4CCCC4)n(Cc4ccsc4Br)c3C[C@H]2CN1C(=O)c1ccccc1` , report its measured composite z-score.
**A:** -0.524
